// each record: one item and its IC50 for Cyclin-dependent kinase 2 (Homo sapiens, UniProt P24941)
QUANTITY MEASURED: IC50 (µM)

Worked examples, 2 compounds total:
>>> numeric_result("O=C(Nc1ccccc1)c1n[nH]c2ccccc12")
3
>>> numeric_result("c1ccc2[nH]c(-c3cc[nH]n3)nc2c1")
25

[I] COc1cccc(F)c1C(=O)Nc1c[nH]nc1C(=O)NC1CCNCC1
[II] Nc1c[nH]nc1C(=O)Nc1ccc(F)cc1
IN: Hi! Which is lower in terms of IC50, the first one I or the second one II ? Refer to your chosen entry by its label in the reply.
OUT: I
